Experiment: NCI Yeast Anticancer Drug Screen. Data for the sgs1 mgt1 strain (AID 161);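 note: 0% = growth of cultures given vehicle only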
Conditions: S. cerevisiae sgs1 mgt1 strain, at 50.0 µM, active compounds read high
Experimental: Growth inhibition of yeast strains with defined genetic alterations is measured as a screen for potential anti-cancer activity. Selected strains with alterations in DNA damage repair or cell cycle control were exposed to compounds and growth inhibition was measured relative to vehicle treated controls. The strain used in this assay is sgs1 mgt1
About 79,000 compounds went through this panel and 15% of them were active in at least one assay; those are over-represented in the sample as a whole.
Assign classes using reported growth inhibition values and the ranges lower bin (below -10%), middle bin (-10% to below 10%), upper bin (10% or more), please.

{"columns": ["Compound", "Class Label"],
 "data": [
  ["CCN(CC)Cc1ccccc1COC(=O)c1cccc(Cl)c1", "upper bin"],
  ["NC(Cc1cnc[nH]1)C(=O)NCC(=O)O (stereo unspecified)", "lower bin"],
  ["COc1cc([N+](=O)[O-])c2nccc(C)c2c1", "middle bin"],
  ["CCCCCCCCN1CSC(=S)N(c2ccc3[nH]c(=S)sc3c2)C1", "upper bin"],
  ["CCOC(=O)/C=C1\\CONC(c2ccc(OC)cc2)=N1", "lower bin"],
  ["O=C(N/N=C(/c1nc2ccc(Cl)cc2[nH]c1=O)C(O)c1ccc(Cl)cc1Cl)c1ccncc1 (stereo unspecified)", "lower bin"],
  ["Cn1c(=O)c2c(nc(CCC(N)=O)n2C)n(C)c1=O", "middle bin"],
  ["Cc1ccc(N=C=O)cc1N1C(=O)N(c2cc(N=C=O)ccc2C)C1=O", "lower bin"],
  ["C=C1C(=O)O[C@H]2[C@H]1[C@H](OC(=O)/C(C)=C\\C)CC(=C)[C@@H]1[C@H](O)[C@H]3O[C@@]3(C)[C@@]12O", "upper bin"],
  ["CN(C)CCNc1ccc(CO)c2sc3ccc(O)cc3c(=O)c12", "upper bin"],
  ["CCOC(=O)CNC(=O)C(Cc1ccccc1)NC(=O)c1ccccc1NC(=O)c1ccccc1 (stereo unspecified)", "middle bin"]
]}

====

Recorded measurements of growth inhibition, one per entry
experiment: NCI Yeast Anticancer Drug Screen. Data for the sgs1 mgt1 strain (AID 161);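 note: 0% = growth of cultures given vehicle only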; settings: S. cerevisiae sgs1 mgt1 strain, at 50.0 µM, active compounds read high
The panel holds about 79,000 compounds, 15% with a hit somewhere; the sample as a whole holds those more often.
Measured Property: growth inhibition (%)

{"columns": ["Compound", "Unit Label", "Meas Value"],
 "data": [
  ["Cc1c(C)c(C)c(S(=O)(=O)NCCCNS(=O)(=O)c2c(C)c(C)c(C)c(C)c2C)c(C)c1C", "%", -7.2],
  ["CC1C(O)=C(O)c2ccccc2N1O (configuration not stated)", "%", -8.6],
  ["O=C1c2ccccc2C(=CC=C2c3ccccc3Sc3ccccc32)c2ccccc21", "%", -35],
  ["CC(C)OC(=O)NCc1cccs1", "%", 6.7],
  ["NCC(NC(=O)OCc1ccccc1)C(=O)O (configuration not stated)", "%", 3.3],
  ["O=C1CC2(C(=O)N1CN1CCOCC1)c1ccccc1-c1ccccc12", "%", 15.6],
  ["C/C=C/C(=O)OC/C=C(\\C)CCC=C(C)C", "%", -6.7],
  ["CCCC1OC(c2ccc(OC)cc2)OCC1CC (configuration not stated)", "%", -0.3],
  ["CC(=O)OCC(OC(C)=O)C1OC2OC(C)(C)OC2C1OS(C)(=O)=O (configuration not stated)", "%", 17.6],
  ["COc1ccc(/C(C#N)=C/c2ccc(N(C)CCC#N)cc2)cc1", "%", 24.2],
  ["c1ccc(C2=NOCC3(c4ccccc4)OC23)cc1 (configuration not stated)", "%", 20.7],
  ["CCOC(=O)[C@H](C)OC(=O)[C@@](C)(NC(=O)c1ccccc1C(=O)OC)[C@@H]1NC=C(C(=O)OC)CS1", "%", 11.2]
]}
